tested on: primary human T-cells; assay: IL2 secretion measurements (24 h, CD3-stimulated T-cells, PBS counter screen); type: cell-based; settings: CD3 condition; normalised to DMSO (neutral) and 20 μM reference compound A1 = 100%
Quantity name: Emax IL2 (% activation)
Respond with the bare value in % activation.

## Task I have this compound here, "CC(C)(C)c1nnc(-c2ccc3c(c2)N(Cc2ccc(-n4nnc(C(F)(F)F)n4)cc2)C(=O)[C@@H](N)CS3(=O)=O)o1" , and I need its recorded Emax IL2 (% activation).
## Result 159

## Task # Emax IL2 (% activation) lookup, item "Cc1nc(F)ccc1-c1nc(-c2ccc3c(c2)N(Cc2ccc(-c4noc(C5CC5)n4)cc2)C(=O)[C@@H](N)CS3(=O)=O)no1"
## Result 101

## Task Data request, read-out Emax IL2 (% activation), for "N[C@H]1CS(=O)(=O)c2ccc(-c3nnc(C4(C(F)F)CNC4)o3)cc2N(Cc2ccc(-c3ccc(C(F)(F)F)cc3)cc2)C1=O"
## Result 19

---

tested on: MV-3 cells; experiment: T-cell - TCB - MV3 killing assay; assay type: cell-based, human; details: primary human T-cells + MV-3 RFP cells, MCSP-TCB 1.5 pM-5 pM, 120 hours imaging; read-out: MSCP TCB killing MV-3 cells 5 d EC50
# strict inequality: EC50 < 0.2 µM yields Met, everything else yields Not met

## Task Is the reported EC50 for "CC(C)(C#N)c1nnc(-c2ccc3c(c2)N(Cc2ccc(-c4ccc(OC(F)(F)F)cn4)cc2)C(=O)[C@@H](N)CS3(=O)=O)o1" strictly below 0.2 µM?
## Result Met

## Task Lab note: confirm whether the reported EC50 for this compound is below 0.2 µM, equality not counting. compound: "CC(C)(C#N)c1nnc(-c2ccc3c(c2)N(Cc2ccc(-n4ccc(C(F)(F)F)n4)cc2)C(=O)[C@@H](N)CS3(=O)=O)o1"
## Result Met

## Task Regarding "CC(C)(C)c1nnc(-c2ccc3c(c2)N(Cc2ccc(-c4nnc(C(F)(F)F)o4)cc2)C(=O)[C@@H](N)CS3(=O)=O)o1" , kindly confirm whether its EC50 is beneath 0.2 µM.
## Result Not met

## Task Dear reviewer, please state whether "CC(C)(C)c1nnc(-c2ccc3c(c2)N(Cc2ccc(-n4cnc(C(F)(F)F)n4)cc2)C(=O)[C@@H](N)CS3(=O)=O)o1" has EC50 strictly beneath 0.2 µM.
## Result Not met

## Task Would you kindly verify if EC50 of "N[C@H]1CS(=O)(=O)c2ccc(-c3nnc(N4CCOC(F)(F)C4)o3)cc2N(Cc2ccc(-c3nnc(C(F)(F)F)o3)cc2)C1=O" is strictly less than 0.2 µM?
## Result Not met

## Task Is EC50 strictly under 0.2 µM for the entry N[C@H]1CS(=O)(=O)c2ccc(-c3nnc(C4(CO)CCCO4)o3)cc2N(Cc2ccc(-c3noc(C(F)(F)F)n3)cc2)C1=O (stereo partly drawn) ?
## Result Not met

## Task Does "N[C@H]1CS(=O)(=O)c2ccc(-c3nnc(N4CCC(F)(F)CC4)o3)cc2N(Cc2ccc(-n3ccc(C(F)(F)F)n3)cc2)C1=O" have EC50 strictly under 0.2 µM?
## Result Met

## Task Is EC50 of "N[C@H]1CS(=O)(=O)c2ccc(-c3nnc(C4(N)CCCCC4)o3)cc2N(Cc2ccc(-c3noc(C(F)(F)F)n3)cc2)C1=O" strictly below 0.2 µM?
## Result Met

## Task Hi there! Is EC50 for "C[C@](N)(c1nnc(-c2ccc3c(c2)N(Cc2ccc(-c4noc(C(F)(F)F)n4)cc2)C(=O)[C@@H](N)CS3(=O)=O)o1)C(F)(F)F" below 0.2 µM, do you know?
## Result Met

## Task Please let me know if "COC(=O)N1CC2CC(c3nnc(-c4ccc5c(c4)N(Cc4ccc(-c6ccc(C(F)(F)F)cn6)cc4)C(=O)[C@@H](N)CS5(=O)=O)o3)(C2)C1" shows EC50 below 0.2 µM.
## Result Met

## Task is_below(EC50, 0.2 µM) for CC(C#N)c1nnc(-c2ccc3c(c2)N(Cc2ccc(-c4noc(C(F)(F)F)n4)cc2)C(=O)[C@@H](N)CS3(=O)=O)o1 (stereo partly drawn) ?
## Result Not met

## Task I wonder whether "C[C@@](N)(c1nnc(-c2ccc3c(c2)N(Cc2ccc(-n4ccc(C(F)(F)F)n4)cc2)C(=O)[C@@H](N)CS3(=O)=O)o1)C(F)(F)F" has EC50 below 0.2 µM. Can you tell?
## Result Met

---

System: primary human T-cells
Test: IL2 secretion measurements (24 h, CD3-stimulated T-cells, PBS counter screen)
Assay type: cell-based
Conditions: CD3 condition; normalised to DMSO (neutral) and 20 μM reference compound A1 = 100%
Method: As readouts for T-cell activation, 1L2 secretion after 24 hours and proliferation after 5 days was measured. Increases in IL2 secretion and proliferation upon compound treatment were assessed as the % of the maximum of reference compound A1. […] The immunoassay is done following the manufacturer's manual (Invitrogen, #A35603). […] Raw data is extracted and IL-2 concentrations are calculated with the Thermo Fisher online app (apps.thermofisher.com/apps/proquantum). […]
Quantity name: Emax IL2 (% activation)
Reply with just the number (in % activation).

## Task Fill blank: measured Emax IL2 (% activation) of the compound COC(F)(c1nnc(-c2ccc3c(c2)N(Cc2ccc(-c4nnc(C(F)(F)F)o4)cc2)C(=O)[C@@H](N)CS3(=O)=O)o1)C(F)(F)F (stereo partly drawn) [Example 67] is ____.
## Result 168

## Task Can you look up the measured Emax IL2 (% activation) of CC(C)(C#N)c1nnc(-c2ccc3c(c2)N(Cc2ccc(-c4ccc(C(F)(F)F)cc4)cc2)C(=O)[C@@H](N)CS3(=O)=O)o1 [Example 46] for me?
## Result 263

## Task Given the entry COC(=O)N1CC(c2nnc(-c3ccc4c(c3)N(Cc3ccc(-c5ccc(C(F)(F)F)cc5)nc3)C(=O)[C@@H](N)CS4(=O)=O)o2)CC(F)(F)C1 (stereo partly drawn) [Example 57] , report its measured Emax IL2 (% activation).
## Result 100

## Task Endpoint output: Emax IL2 (% activation) of N[C@H]1CS(=O)(=O)c2cc(F)c(-c3noc(C4(N)COC4)n3)cc2N(Cc2ccc(-c3noc(C(F)(F)F)n3)cc2)C1=O [Example 9] . Value?
## Result 558

## Task Any idea what its Emax IL2 (% activation) is? The compound is CC(C)(C#N)c1nnc(-c2ccc3c(c2)N(Cc2ccc(-c4cnc(OC(F)(F)F)cn4)cc2)C(=O)[C@@H](N)CS3(=O)=O)o1 [Example 112]
## Result 139

## Task Tell me the measured Emax IL2 (% activation) of CC(C)(C#N)c1nnc(-c2ccc3c(c2)N(Cc2ccc(-c4ncc(OC(F)(F)F)cn4)cc2)C(=O)[C@@H](N)CS3(=O)=O)o1 [Example 117] , please.
## Result 114

---

system: primary human T-cells; assay: IL2 secretion measurements (24 h, CD3-stimulated T-cells, PBS counter screen); format: cell-based; conditions: CD3 condition; normalised to DMSO (neutral) and 20 μM reference compound A1 = 100%
Quantity name: Emax IL2 (% activation)
Numbers only; they are read as % activation.

## Task Param readout = Emax IL2 (% activation); param system = primary human T-cells; param query = "Cc1nc(-c2ccc(CN3C(=O)[C@@H](N)CS(=O)(=O)c4ccc(-c5nnc(C(C)(C)C#N)o5)cc43)cc2)ccc1C(F)(F)F" ; response: value
## Result 48

## Task Form: Entry = "CC(C)(C#N)c1nnc(-c2ccc3c(c2)N(Cc2ccc(-n4ccc(C(F)(F)F)n4)cc2)C(=O)[C@@H](N)CS3(=O)=O)o1" | System = primary human T-cells | Emax IL2 (% activation) = ____
## Result 207

## Task Form field: Emax IL2 (% activation) recorded for "N[C@H]1CS(=O)(=O)c2cc(F)c(-c3nnc(N4CCC(F)(F)CC4)o3)cc2N(Cc2ccc(-c3noc(C(F)(F)F)n3)cc2)C1=O" with primary human T-cells (enter value)
## Result 537

## Task Lab request: please report Emax IL2 (% activation) under test system primary human T-cells for "Cc1cc(C)n(-c2ccc(CN3C(=O)[C@@H](N)CS(=O)(=O)c4ccc(-c5nnc(C(C)(C)C)o5)cc43)cc2)n1"
## Result 75

## Task Which measured Emax IL2 (% activation) belongs to N[C@H]1CS(=O)(=O)c2ccc(-c3nnc(C4(CO)CCCO4)o3)cc2N(Cc2ccc(-c3noc(C(F)(F)F)n3)cc2)C1=O (stereo partly drawn) , tested on primary human T-cells?
## Result 126

## Task Notebook: pull reported Emax IL2 (% activation) for primary human T-cells, entry CC1(c2nnc(-c3ccc4c(c3)N(Cc3ccc(-c5ccc(C(F)(F)F)cc5)cc3)C(=O)[C@@H](N)CS4(=O)=O)o2)CCO1 (stereo partly drawn)
## Result 114

Every entry's value here was drawn from patent US20260138976A1.
